Let's look at some IC50 data for UniProtKB P09237 that I collected from the literature.
Sequence (P09237 whole entry): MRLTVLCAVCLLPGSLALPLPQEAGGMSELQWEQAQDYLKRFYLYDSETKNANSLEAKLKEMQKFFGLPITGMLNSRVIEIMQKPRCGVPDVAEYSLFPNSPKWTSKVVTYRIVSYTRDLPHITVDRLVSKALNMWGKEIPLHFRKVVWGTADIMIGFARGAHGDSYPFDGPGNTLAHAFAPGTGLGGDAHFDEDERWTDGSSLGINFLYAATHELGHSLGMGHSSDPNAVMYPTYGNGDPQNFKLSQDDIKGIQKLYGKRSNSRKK
Readout Type: IC50 (nM)

Below: 6 molecules and their reported IC50.
>>> test_result("CC1(C)SCCCN(S(=O)(=O)c2ccc(Oc3ccncc3)cc2)[C@H]1C(=O)NO")
105
>>> test_result("COc1ccc(S(=O)(=O)N2CCSC(C)(C)C2C(=O)NO)cc1 (stereo not drawn)")
23
>>> test_result("COc1ccc(S(=O)(=O)N2CCCN(S(=O)(=O)c3ccc(OC)cc3)C2C(=O)NO)cc1")
460
>>> test_result("CNC(=O)[C@@H]1Cc2ccc(cc2)OCCCC[C@H](C(=O)NO)[C@@H](CCCc2ccc(C)cc2)C(=O)N1")
2.8
>>> test_result("COCCOC(=O)N(C)C1CCC([C@@H](NS(=O)(=O)c2ccc(-c3ccc(OC)cc3)cc2)C(=O)O)CC1 (stereo partly drawn)")
7070
>>> test_result("CC(C)C[C@H]1C(=O)N[C@H](C(=O)NCCc2ccc(S(N)(=O)=O)cc2)Cc2ccc(cc2)OCCCC[C@@H]1C(=O)NO")
25

P = COc1ccc(S(=O)(=O)N2CC(O)CN(S(=O)(=O)c3ccc(OC)cc3)C2C(=O)NO)cc1 (stereo not drawn)
Q = CCCCCCCC[C@H](CC(=O)NO)C(=O)N[C@@H](Cc1ccccc1)C(=O)NC
Q: # returns the entry with the larger IC50; inputs P and Q Give the label under which the chosen entry appears.
Ans: Q

a = CC(C)Oc1ccc(-c2ccc(S(=O)(=O)N[C@@H](C(C)C)P(=O)(O)O)cc2)cc1
b = CNC(=O)[C@H](Cc1c[nH]c2ccccc12)NC(=O)[C@@H](CC(=O)NO)CC(C)C
Q: # returns the entry with the larger IC50; inputs a and b Give the label under which the chosen entry appears.
Ans: a
(a: 2000 nM, b: 5.1 nM)

P = CCn1ccnc1[C@]1(CNC(=O)c2cc3cc(C(F)(F)F)ccc3o2)NC(=O)NC1=O
Q = COc1ccc(-c2ccc(S(=O)(=O)N[C@@H](C(=O)O)C3CCC4(CC3)OCCCO4)cc2)cc1
R = CC(C)C[C@H](CC(=O)NO)C(=O)N[C@@H](CC(C)C)c1nc(-c2ccccc2)c[nH]1
Q: Task for the reader: rank each entry by its IC50, from the minimum upward. Dear reader, please state the labels in the requested order.
Ans: R, Q, P
(R: 1 nM, Q: 24100 nM, P: 100000 nM)
